Values were extracted from patent US20210047431A1.

Measurement target: T1, recombinant human sPLA2-GIB (mature secreted form of group IB pancreatic phospholipase A2) (human, UniProt P04054 23-148)
T1 construct: Genbank NP_000919 printed for human PLA2-GIB; also called sPLA2-IB; mature sPLA2-GIB
T1 sequence (P04054 23-148): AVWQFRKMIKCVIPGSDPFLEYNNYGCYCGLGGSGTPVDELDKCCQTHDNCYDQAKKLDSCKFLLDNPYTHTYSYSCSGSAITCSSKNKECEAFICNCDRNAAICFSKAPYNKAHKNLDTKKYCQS
Measurement protocol: competition ELISA on coated sPLA2-IB; competitor biotinylated 14G9
Metric name: percentage of signal (%)
Your answer should be a plain number; it is taken to be in %.

What percentage of signal value was documented for this binder, #7A10 (antibody, IgG1, V domains shown, also called monoclonal antibody 7A10; #7A10 mAb) VH: QVQLKESGPGLVAPSQSLSITCTVSGFSLTSYGVSWVRQPPGKGLEWLGVIWGDGSTNYHSALISRLSISKDNSKSQVFLKLNSLQTDDTATYYCAKEGGLRRGVYFDYWGQGTTLTVSS VL: DIQMNQSPSSLSASLGDTITITCRASQGISIWLDWYQQKPGNIPKLLIYKASNLHTGVPPRFSGSGSGTDFTLTISSLQPEDIATYYCLQSQSYPLTFGAGTKLELKR ?
58

What percentage of signal value was documented for this binder, #24B2 (antibody, IgG2a, V domains shown) VH: DVQVQESGPGLVKPSQTVSLNCTVTGHSITDDNYYWSWIRLVSGSKLEWIGYITSSGSTDINPSLKSRISITRDISKNQFFLHLNSVTAEDTATYYCARDSTDGDFYFEKWGQGTTLTVSS VL: DIVLTQSPASLAVSLGQRATISCRASESVDNYGISFMHWYQQKPGQPPKLLIYRASNLESGIPARFSGSGSRTDFTLTINPVETDDVATYYCQQSSRDLFTFGGGTKLEIKR ?
17

What percentage of signal value was documented for this binder, #22C6 (antibody, IgG2a, V domains shown) VH: EVQLQESGPGLVKPSQTVSLNCTVTGHSITDDNYYWSWIRLVSGSKLEWIGYITSAGNTDNNPSLKSRISITRDISKNQFFLHLSSVTAEDTATYYCARDSTDGDFYFEKWGQGTTLTVSS VL: EIVLTQSPTTMAASPGEKITITCSVSSSISPNFLHWYQQKPGFSPKLLIFRTSNLASGVPTRFSGSGSGTSYSLTIGTMEAEDVATYYCHQGNSLPLTFGAGTKLELKR ?
2
